Source of measurements: patent US12617777B2

Examples of molecules with documented inhibition at 10 µM follow.
- target: human GPR84 receptor (Homo sapiens)
- Construct: host or cells: HEK293, transient transfection
- measurement-description: Gαi biosensor BRET assay in HEK293 cells (antagonism of ZQ-16)
- Assay type: cell-based
- condition-notes: HEK293, single concentration 10 μM (designated F)

// solved cases for inhibition at 10 µM follow
INSERT INTO assay_data (molecule, result) VALUES
  ('Cc1cc(N2CCCCC2)ccc1-c1cn(CC2CCCCO2)nn1 (stereo not drawn)', '≤ 25%'),
  ('Cc1cc(N2CCN(Cc3ccccn3)CC2)ccc1-c1cn(CC2OCCCO2)nn1', '25 to 50%'),
  ('C(#CC1CC1)c1ccc2c(c1)CCc1nnn(CC3CCCCO3)c1-2 (stereo not drawn)', '≤ 25%');

# inhibition at 10 µM (molecule: FC(F)c1cc(C#CC2CC2)ccc1-c1cn(CC2CCCCO2)nn1 (stereo not drawn) ) is 25 to 50%

# inhibition at 10 µM (molecule: Cc1ccc(C#CC2CC2)cc1-c1cn(CC2OCCCC2(C)C)nn1 (stereo not drawn) ) is ≤ 25%

# inhibition at 10 µM (molecule: `Cc1cc(C#CC2CC2)ccc1-c1cn(C[C@H]2COC(C)(C)O2)nn1` ) is 50 to 75%

# inhibition at 10 µM (molecule: Cc1cc(C#CCN(C)CC2CC2)ccc1-c1cn(CC2CCCCO2)nn1 (stereo not drawn) ) is > 75%

# inhibition at 10 µM (molecule: `Cc1ccc(C(C)(C)O)cc1N(C)c1cn(CC2OCC(C)(C)CO2)nn1` ) is 50 to 75%

# inhibition at 10 µM (molecule: `CCOCC#Cc1cnc(-c2cn(CC3OCC(C)(C)CO3)nn2)c(OC2CC2)c1` ) is > 75%

# inhibition at 10 µM (molecule: Cc1cc(N2CC3CCC(C2)N3Cc2ccccn2)ccc1-c1cn(CC2CCCCO2)nn1 (stereo not drawn) ) is ≤ 25%

# inhibition at 10 µM (molecule: Cc1cc(N2CCCC2)ccc1-c1cn(CC2CCCCO2)nn1 (stereo not drawn) ) is 25 to 50%

# inhibition at 10 µM (molecule: Cc1cc(N2CC(C)(NCc3ccccn3)C2)c(F)cc1-c1cn(CC2CCCCO2)nn1 (stereo not drawn) ) is > 75%

# inhibition at 10 µM (molecule: `Cc1cc(N2CCN(Cc3ccccn3)CC2=O)ccc1-c1cn(CC2OCC(C)(C)CO2)nn1` ) is 25 to 50%

# inhibition at 10 µM (molecule: `CN(C)c1cc(C#CC2CC2)ccc1-c1cn(CC2CCOCC2)nn1` ) is 25 to 50%

# inhibition at 10 µM (molecule: NC(=O)c1cc(C#CC2CC2)ccc1-c1cn(CC2CCCCO2)nn1 (stereo not drawn) ) is ≤ 25%

# inhibition at 10 µM (molecule: Cc1cc(N2CCCC(O)C2)ccc1-c1cn(CC2CCCCO2)nn1 (stereo not drawn) ) is 25 to 50%

# inhibition at 10 µM (molecule: `CCc1cc(C#CCN(C)C2CC2)ccc1-c1cn(CC2OCC(C)(C)CO2)nn1` ) is ≤ 25%

# inhibition at 10 µM (molecule: `COc1ccc(Cl)c(N(C)c2cn(CC3OCC(C)(C)CO3)nn2)c1` ) is > 75%

----------
- target: human GPR84 receptor (Homo sapiens, UniProt Q9NQS5)
- Construct: host or cells: HEK293, transient transfection
- Sequence (Q9NQS5 whole entry): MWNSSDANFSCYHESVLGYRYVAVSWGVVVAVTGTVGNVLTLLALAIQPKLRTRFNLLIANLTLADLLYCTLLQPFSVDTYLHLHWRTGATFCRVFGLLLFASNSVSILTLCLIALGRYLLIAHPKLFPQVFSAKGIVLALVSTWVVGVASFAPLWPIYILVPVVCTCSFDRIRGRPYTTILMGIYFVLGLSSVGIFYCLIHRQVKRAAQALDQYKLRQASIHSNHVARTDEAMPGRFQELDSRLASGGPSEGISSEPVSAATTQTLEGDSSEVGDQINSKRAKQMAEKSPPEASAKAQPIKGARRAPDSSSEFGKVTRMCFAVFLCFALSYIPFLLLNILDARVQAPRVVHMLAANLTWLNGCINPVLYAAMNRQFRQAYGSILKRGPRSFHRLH
- measurement-description: Gαi biosensor BRET assay in HEK293 cells (antagonism of ZQ-16)
- Format: cell-based
- condition-notes: HEK293, single concentration 5 μM (designated D)
Examples of compounds with documented inhibition at 5 µM follow.

// solved cases for inhibition at 5 µM follow
INSERT INTO assay_data (compound, readout, result) VALUES
  ('Cc1cc(C#CC2CC2)ccc1-c1cn(C[C@@H]2CCCCO2)nn1', 'inhibition at 5 µM', '≤ 25%'),
  ('CCc1cc(C#CC2CC2)ccc1-c1cn(CC2CCCCO2)nn1 (stereo not drawn)', 'inhibition at 5 µM', '> 75%');

Alright, here's another compound for you.
# inhibition at 5 µM (compound: Cc1cc(C#CCN(C)Cc2ccccc2)ccc1-c1cn(CC2CCCCO2)nn1 (stereo not drawn) ) is > 75%

----------
- Tested on: neutrophils
- measurement-description: Neutrophil migration assay (embelin as chemotactic agent, ATPlite readout)
- Format: cell-based
- condition-notes: Neutrophil; human neutrophils, embelin as chemotactic agent; read-out: Human Neutrophil migration inhibition IC50
pIC50: −log10 of the molar value.
readout: pIC50

// solved cases for pIC50 follow
INSERT INTO assay_data (compound, result) VALUES
  ('CCc1cc(C#CCNc2cccnc2)cnc1-c1cn(C[C@H]2CCCCO2)nn1 [Compound I-535]', '≥ 6.52'),
  ('Cc1ccc(C#CC2CC2)cc1C(OC1CC1)c1cn(CC2OCC(C)(C)CO2)nn1 (centres unmarked) [Compound I-644]', '≥ 6.52'),
  ('CO[C@H](c1cn(C[C@@H]2CCCCO2)nn1)c1cc(C#CC2CC2)ccc1C [Compound I-512]', '≥ 6.52'),
  ('CN(C)c1cc(N2CC(C)(C)C2)ccc1-c1cn(CC2OCC(C)(C)CO2)nn1 [Compound I-585]', '≥ 6.52'),
  ('CO[C@H](c1cn(C[C@H]2CCCCO2)nn1)c1cc(C#CC2CC2)ccc1C [Compound I-511]', '≥ 6.52');

# pIC50 (compound: Cc1cc(C#CC(C)(C)C)ccc1-c1cn(CC2CCCCO2)nn1 (centres unmarked) [Compound I-67] ) is 6.00 to 6.52

# pIC50 (compound: Cc1cc(N2CCN([C@@H](C)c3ccccn3)CC2)ccc1-c1cn(C[C@H]2CCCCO2)nn1 [Compound I-612] ) is ≥ 6.52

----------
- target: human GPR84 receptor (Homo sapiens, UniProt Q9NQS5)
- Construct: host or cells: HEK293, transient transfection
- measurement-description: Gαi biosensor BRET assay in HEK293 cells (antagonism of ZQ-16)
- Type: cell-based
- condition-notes: HEK293, single concentration 10 μM (designated F)
readout: inhibition at 10 µM

// solved cases for inhibition at 10 µM follow
INSERT INTO results (molecule, target, readout, result) VALUES
  ('Cc1cc(N2CCN([C@@H](C)c3ccccn3)CC2)ccc1-c1cn(CC2OCC(C)(C)CO2)nn1', 'human GPR84 receptor (Homo sapiens, UniProt Q9NQS5)', 'inhibition at 10 µM', '> 75%'),
  ('COc1cc(-c2cn(C[C@H]3CCCCO3)nn2)c(C)cc1N1CC(C)(C)C1', 'human GPR84 receptor (Homo sapiens, UniProt Q9NQS5)', 'inhibition at 10 µM', '≤ 25%'),
  ('COC(C)Cn1cc(-c2ccc(C#CCNc3ccccc3)cc2C)nn1 (centres unmarked)', 'human GPR84 receptor (Homo sapiens, UniProt Q9NQS5)', 'inhibition at 10 µM', '25 to 50%'),
  ('O=C(O)c1cc(C#CC2CC2)ccc1-c1cn(CC2CCCCO2)nn1 (centres unmarked)', 'human GPR84 receptor (Homo sapiens, UniProt Q9NQS5)', 'inhibition at 10 µM', '≤ 25%'),
  ('CN(C)c1cc(N2CC3(COC3)C2)ccc1-c1cn(CC2OCC3(CC3)CO2)nn1', 'human GPR84 receptor (Homo sapiens, UniProt Q9NQS5)', 'inhibition at 10 µM', '≤ 25%'),
  ('Cc1ccc(C#CC2CC2)cc1Cc1cn(CC2CCc3ccccc3O2)nn1 (centres unmarked)', 'human GPR84 receptor (Homo sapiens, UniProt Q9NQS5)', 'inhibition at 10 µM', '25 to 50%'),
  ('CC1(C)COC(Cn2cc(-c3ccc(C#CCN4CC(C)(C)C4)cc3OC3CC3)nn2)OC1', 'human GPR84 receptor (Homo sapiens, UniProt Q9NQS5)', 'inhibition at 10 µM', '> 75%'),
  ('Cc1cc(C#CCn2cc(C3CC3)nn2)ccc1-c1cn(CC2CCCCO2)nn1 (centres unmarked)', 'human GPR84 receptor (Homo sapiens, UniProt Q9NQS5)', 'inhibition at 10 µM', '> 75%');

# inhibition at 10 µM (molecule: Cc1cc(C#CC2CC2)cnc1-c1cn(CC2CCCO2)nn1 (centres unmarked) ) is 25 to 50%

# inhibition at 10 µM (molecule: `CC1(C)COC(Cn2cc(-c3ncc(C#CCNC4CC4)cc3OC3CC3)nn2)OC1` ) is > 75%

# inhibition at 10 µM (molecule: `CN(C)c1cc(C#N)ccc1-c1cn(CC2OCC(C)(C)CO2)nn1` ) is 50 to 75%

# inhibition at 10 µM (molecule: `Cc1cc(C#CCO)ccc1-c1cn(CC2OCC(F)(F)CO2)nn1` ) is 50 to 75%

# inhibition at 10 µM (molecule: CC(C)Oc1cc(C#CC2CC2)cnc1-c1cn(CC2CCCCO2)nn1 (centres unmarked) ) is > 75%

# inhibition at 10 µM (molecule: COC(c1cn(CC2OCC(F)(F)CO2)nn1)c1cc(C#CC2CC2)ccc1C (centres unmarked) ) is > 75%
